Taken from patent US7335500B2.

Molecular target: α1,3/4Fucosyltransferase (Homo sapiens)
Sequence (P21217 whole entry): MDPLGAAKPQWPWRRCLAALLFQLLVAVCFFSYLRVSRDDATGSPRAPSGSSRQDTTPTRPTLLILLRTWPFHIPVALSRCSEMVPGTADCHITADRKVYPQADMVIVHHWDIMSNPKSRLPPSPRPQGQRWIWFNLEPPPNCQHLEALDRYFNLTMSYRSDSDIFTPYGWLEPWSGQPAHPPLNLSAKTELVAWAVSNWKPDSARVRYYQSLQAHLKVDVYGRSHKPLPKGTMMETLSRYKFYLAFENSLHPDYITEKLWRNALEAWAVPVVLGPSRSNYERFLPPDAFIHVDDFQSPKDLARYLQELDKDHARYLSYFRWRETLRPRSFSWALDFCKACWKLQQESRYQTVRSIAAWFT
Test: Substrate specificity and inhibition study of α1,3/4FucT (GDP-14C-Fuc transfer assay)
Type: biochemical
Settings: 0.20 mM GDP-Fuc, 20 mM MnCl2, 10 mM acceptor; Galβ1,4GlcNAc = 100
Method: The assay procedure was essentially the same as described previously [Fukowska-Latallo et al, Gene & Development, 4:1288 (1990)] with some modifications. A stock mixture containing 0.25 mM GDP-^14C-Fuc (5000 cpm/mL), 6.25 mM ATP, 25 mM MnCl2 and 62.5 mM sodium cacodylate buffer, pH 6.2 was mixed freshly and kept on ice. […] The incubation was carried out at 37° C. for 30 to 240 minutes depending upon the acceptor under study. […] The radioactivity was counted on a scintillation counter. […]
measured metric: Vrel (relative velocities)

Below are worked cases with known answers.
INSERT INTO assay_data (molecule, assay_system, measured_metric, obs_value) VALUES
  ('OC[C@H]1O[C@@H](O[C@H]2[C@H](O)[C@@H](O)C(O)O[C@@H]2CO)[C@H](O)[C@@H](O)[C@H]1O (stereo partly shown)', 'α1,3/4Fucosyltransferase (Homo sapiens)', 'Vrel (relative velocities)', 120),
  ('CC(=O)N[C@H]1C(O)O[C@H](CO)[C@@H](O)[C@@H]1O[C@@H]1O[C@H](CO)[C@H](O)[C@H](O)[C@H]1O (stereo partly shown)', 'α1,3/4Fucosyltransferase (Homo sapiens)', 'Vrel (relative velocities)', 580),
  ('CC(=O)N[C@H]1[C@H](OC[C@H]2O[C@@H](O[C@H]3[C@H](O)[C@@H](O)C(O)O[C@@H]3CO)[C@H](O)[C@@H](O)[C@H]2O)O[C@H](CO)[C@@H](O)[C@@H]1O (stereo partly shown)', 'α1,3/4Fucosyltransferase (Homo sapiens)', 'Vrel (relative velocities)', 13),
  ('CC(=O)N[C@H]1C(O)O[C@H](CO)[C@H](O[C@@H]2O[C@H](CO)[C@H](O)[C@H](O)[C@H]2O)[C@@H]1O (stereo partly shown)', 'α1,3/4Fucosyltransferase (Homo sapiens)', 'Vrel (relative velocities)', 27),
  ('CC(=O)NC1C(O)OC(CO)C(OC2OC(CO)C(O)C(OC3(C(=O)O)CC(O)C(NC(C)=O)C(C(O)C(O)CO)O3)C2O)C1O (stereo not shown)', 'α1,3/4Fucosyltransferase (Homo sapiens)', 'Vrel (relative velocities)', 60);

1. CC(=O)N[C@H]1[C@H](O[C@H]2[C@H](O)[C@@H](NC(C)=O)C(O)O[C@@H]2CO)O[C@H](CO)[C@@H](O)[C@@H]1O (stereo partly shown)
2. OC[C@H]1O[C@@H](O[C@H]2[C@H](O)[C@@H](O)C(O)S[C@@H]2CO)[C@H](O)[C@@H](O)[C@H]1O (stereo partly shown)
Return label of the item with the larger Vrel (relative velocities). Candidates: 1 , 2 . Response format: the label of the selected entry.
2
(2: 310, 1: 23)

* * *

Molecular target: human plasma type α1,3FucT (Homo sapiens, UniProt Q11128)
Sequence (Q11128 1-374): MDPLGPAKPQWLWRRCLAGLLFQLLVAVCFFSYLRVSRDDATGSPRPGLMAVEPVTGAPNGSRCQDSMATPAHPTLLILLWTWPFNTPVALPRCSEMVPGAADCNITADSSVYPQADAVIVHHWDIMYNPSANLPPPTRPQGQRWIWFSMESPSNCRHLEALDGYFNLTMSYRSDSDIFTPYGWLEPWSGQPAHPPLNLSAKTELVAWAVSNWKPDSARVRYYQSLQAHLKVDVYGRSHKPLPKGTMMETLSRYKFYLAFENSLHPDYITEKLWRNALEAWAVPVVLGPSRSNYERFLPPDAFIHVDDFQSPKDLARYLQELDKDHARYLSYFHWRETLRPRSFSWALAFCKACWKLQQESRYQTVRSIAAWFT
Test: Substrate specificity and inhibition study of α1,3FucT (GDP-14C-Fuc transfer assay)
Format: biochemical
Conditions: noncompetitive inhibitor versus LacNAc; read-out: Kis
measured metric: Ki (µM)
Entry rule: numbers only, all in µM.

Form field: reported Ki of Nc1nc2c(ncn2[C@@H]2O[C@H](COP(=O)(O)OP(=O)(O)O)[C@@H](O)[C@H]2O)c(=O)[nH]1 [GDP, guanosine 5′-diphosphate]
160
